- System: human induced pluripotent stem cell-derived cardiomyocytes (hiPSC-CM)
- Method Description: Action potential recordings in hiPSC-CM with voltage sensitive dye (FluoVolt, CellOPTIQ)
- Type: cell-based
- Protocol Conditions: hiPSC-CM, 10x clinical concentration
Observed Property: % Change of cycle length from baseline (%)

In [3]: df
Out[3]:
                               entry_smiles  readout_units  reported
0  CN(C)CCC[C@@]1(c2ccc(F)cc2)OCc2cc(C#N)ccc21              %     -2.06

[P] CNCCC[C@@]1(c2ccc(F)cc2)OCc2cc(C#N)ccc21
[Q] CNCCC[C@]1(c2ccc(F)cc2)OCc2cc(C#N)ccc21
[R] N#Cc1ccc2c(c1)CO[C@]2(CCCN)c1ccc(F)cc1
[S] N#Cc1ccc2c(c1)CO[C@@]2(CCCN)c1ccc(F)cc1
[T] CN(C)CCC[C@]1(c2ccc(F)cc2)OCc2cc(C#N)ccc21
Order these by % Change of cycle length from baseline, descending, and give the full ranking. Record the ranking as a list of labels in the requested order. S, R, T, P, Q
(S: 9.89%, R: -1.09%, T: -1.96%, P: -3.81%, Q: -9.34%)

====

- Test system: human induced pluripotent stem cell-derived cardiomyocytes (hiPSC-CM)
- Method Description: Action potential recordings in hiPSC-CM with voltage sensitive dye (FluoVolt, CellOPTIQ)
- Format: cell-based
- Protocol Conditions: hiPSC-CM, clinical concentration
- Method: Cryopreserved human induced pluripotent stem cell-derived cardiomyocytes (hiPSC-CM): CDI iCell cardiomycytes^2 01434 CardioTox Kit (Catalog #: R1222, FujiFilm CDI, Madison, WI) were kept in liquid nitrogen until culture according to instructions by the manufacturer. […] All studies were conducted at Clyde Biosciences (Glasgow, Scotland). […]
Observed Property: % Change of cycle length from baseline (%)

In [3]: df
Out[3]:
                                   compound                       observed_property  reported
0  CN(C)CCC[C@@]1(c2ccc(F)cc2)OCc2cc(C#N)ccc21 [S-citalopram]  % Change of cycle length from baseline      2.14

[P] CNCCC[C@@]1(c2ccc(F)cc2)OCc2cc(C#N)ccc21 [S-demethylcitalopram]
[Q] CNCCC[C@]1(c2ccc(F)cc2)OCc2cc(C#N)ccc21 [R-demethylcitalopram]
[R] N#Cc1ccc2c(c1)CO[C@]2(CCCN)c1ccc(F)cc1 [R-didemethylcitalopram]
[S] CN(C)CCC[C@]1(c2ccc(F)cc2)OCc2cc(C#N)ccc21 [R-citalopram]
[T] N#Cc1ccc2c(c1)CO[C@@]2(CCCN)c1ccc(F)cc1 [S-didemethylcitalopram]
Reorder the items by % Change of cycle length from baseline, least to greatest. Record the ranking as a list of labels in the requested order. Q, P, R, S, T
(Q: -6.45%, P: -4.33%, R: -1.40%, S: 0.99%, T: 1.42%)

====

- Test system: human induced pluripotent stem cell-derived cardiomyocytes (hiPSC-CM)
- Method Description: Action potential recordings in hiPSC-CM with voltage sensitive dye (FluoVolt, CellOPTIQ)
- Type: cell-based
- Protocol Conditions: hiPSC-CM, all tested concentrations
Observed Property: Effect on cycle length

>>> print(df.to_string())
                               entry_smiles            reported
0   CNCCC[C@]1(c2ccc(F)cc2)OCc2cc(C#N)ccc21  limited shortening
1  CNCCC[C@@]1(c2ccc(F)cc2)OCc2cc(C#N)ccc21  limited shortening
2  CN(C)CCC[C@]1(c2ccc(F)cc2)OCc2cc(C#N)ccc21        not affected
3   N#Cc1ccc2c(c1)CO[C@@]2(CCCN)c1ccc(F)cc1        not affected

Tell us which Effect on cycle length value is on record for N#Cc1ccc2c(c1)CO[C@]2(CCCN)c1ccc(F)cc1 not affected

Tell us which Effect on cycle length value is on record for CN(C)CCC[C@@]1(c2ccc(F)cc2)OCc2cc(C#N)ccc21 not affected
